tested on: NCI/ADR-RES; settings: read-out: 50% lethal concentration (LC50), Ovarian
Measure name: CC50 (µM)
One number for each entry, in µM.

The cases that follow already have their CC50 on record.
q: May I ask what CC50 has been recorded for C=C1CCC2C3(C)COC(c4cn(-c5ccccc5)nc4-c4ccc(F)cc4)OC3CCC2(C)C1CC=C1C(=O)OCC1O (stereo not shown) [1f] ?
a: 8.29

q: May I ask what CC50 has been recorded for C=C1CCC2C3(C)COC(c4cn(-c5ccccc5)nc4-c4cccc(F)c4)OC3CCC2(C)C1CC=C1C(=O)OCC1O (stereo not shown) [1c] ?
a: 8.99

q: May I ask what CC50 has been recorded for C=C1CCC2C3(C)COC(c4cn(-c5ccccc5)nc4-c4ccc(C)cc4)OC3CCC2(C)C1CC=C1C(=O)OCC1O (stereo not shown) [1i] ?
a: 8.34

The record that follows has no CC50 shown yet.
q: May I ask what CC50 has been recorded for C=C1CCC2C3(C)COC(c4cn(-c5ccccc5)nc4-c4ccc(Cl)cc4)OC3CCC2(C)C1CC=C1C(=O)OCC1O (stereo not shown) [1g] ?
a: 9.87

---

Would you mind telling me the reported CC50 of each entry?
system: NCI-H226; settings: read-out: 50% lethal concentration (LC50); NCI-H226, Non-Small Cell Lung
Answers are plain numbers, in µM.

q: May I ask what CC50 has been recorded for C=C1CCC2C3(C)COC(c4cn(-c5ccccc5)nc4-c4ccc(Cl)cc4)OC3CCC2(C)C1CC=C1C(=O)OCC1O (stereo not shown) ?
a: 5.99

q: May I ask what CC50 has been recorded for C=C1CCC2C3(C)COC(c4cn(-c5ccccc5)nc4-c4ccccc4)OC3CCC2(C)C1CC=C1C(=O)OCC1O (stereo not shown) ?
a: 9.55

q: May I ask what CC50 has been recorded for C=C1CCC2C3(C)COC(c4cn(-c5ccccc5)nc4-c4cccc(F)c4)OC3CCC2(C)C1CC=C1C(=O)OCC1O (stereo not shown) ?
a: 6.08

q: May I ask what CC50 has been recorded for C=C1CCC2C3(C)COC(c4cn(-c5ccccc5)nc4-c4ccc(C)cc4)OC3CCC2(C)C1CC=C1C(=O)OCC1O (stereo not shown) ?
a: 5.92

q: May I ask what CC50 has been recorded for C=C1CCC2C3(C)COC(c4cn(-c5ccccc5)nc4-c4cccc(Br)c4)OC3CCC2(C)C1CC=C1C(=O)OCC1O (stereo not shown) ?
a: 6.71

q: May I ask what CC50 has been recorded for C=C1CCC2C3(C)COC(c4cn(-c5ccccc5)nc4-c4ccc(OC)cc4)OC3CCC2(C)C1CC=C1C(=O)OCC1O (stereo not shown) ?
a: 6.55

The record that follows has no CC50 shown yet.
q: May I ask what CC50 has been recorded for C=C1CCC2C3(C)COC(c4cn(-c5ccccc5)nc4-c4cccc(Cl)c4)OC3CCC2(C)C1CC=C1C(=O)OCC1O (stereo not shown) ?
a: 6.46

---

test system: T-47D; conditions: Breast
Would you mind telling me the reported Total growth inhibition (TGI) of each entry?
Give bare numbers, in µM.

q: May I ask what Total growth inhibition (TGI) has been recorded for C=C1CCC2C3(C)COC(c4cn(-c5ccccc5)nc4-c4ccc(Br)cc4)OC3CCC2(C)C1CC=C1C(=O)OCC1O (stereo not shown) ?
a: 3.13

Batch of 6 compounds: report Total growth inhibition (TGI) for each.
1. C=C1CCC2C3(C)COC(c4cn(-c5ccccc5)nc4-c4cccc(Br)c4)OC3CCC2(C)C1CC=C1C(=O)OCC1O (stereo not shown)
2. C=C1CCC2C3(C)COC(c4cn(-c5ccccc5)nc4-c4cccc(Cl)c4)OC3CCC2(C)C1CC=C1C(=O)OCC1O (stereo not shown)
3. C=C1CCC2C3(C)COC(c4cn(-c5ccccc5)nc4-c4ccc(Cl)cc4)OC3CCC2(C)C1CC=C1C(=O)OCC1O (stereo not shown)
4. C=C1CCC2C3(C)COC(c4cn(-c5ccccc5)nc4-c4ccc(F)cc4)OC3CCC2(C)C1CC=C1C(=O)OCC1O (stereo not shown)
5. C=C1CCC2C3(C)COC(c4cn(-c5ccccc5)nc4-c4cccc([N+](=O)[O-])c4)OC3CCC2(C)C1CC=C1C(=O)OCC1O (stereo not shown)
6. C=C1CCC2C3(C)COC(c4cn(-c5ccccc5)nc4-c4ccc(C)cc4)OC3CCC2(C)C1CC=C1C(=O)OCC1O (stereo not shown)

a:
[7.26, 4.76, 3.6, 2.97, 5.02, 3.55]
